Documented growth estimate across a set of sequences
- Test system: Saccharomyces cerevisiae PS128 hsf1 delta, HSF1(1-493) fusion
- method_summary: growth estimate (transactivation domain function in HSF1 fusion, heat-shock survival) (a.u. (slope of normalised read count over time)); higher = stronger growth at 37°C, i.e. more transactivation activity
- particulars: library: design library
In your answer, state the number alone without any accompanying words.

Field: example entries. Status: answers known.
> print(dat)
             biosequence  measured.attribute  readout.value
 1         EDDDRFSLWDSML     growth estimate         -0.141
 2         LFDYDFGFGNDFA     growth estimate           1.76
 3          EDLYAILWSDVY     growth estimate          -0.11
 4      GFDLDMLGDFDLDMLG     growth estimate           1.03
 5         EDDDEFSRWDSML     growth estimate        -0.0194
 6        DLDESWDYIFETTR     growth estimate           1.15
 7   GFPDTQDDFLKWWRSEEAQ     growth estimate         -0.128
 8         LFDYDFLFGNDAA     growth estimate           2.84
 9  MLSSHGFSVATSALLDLFSP     growth estimate         -0.234
10         QQNGEIARLWDFN     growth estimate         -0.234

Hey, Saccharomyces cerevisiae PS128 hsf1 delta, HSF1(1-493) fusion data for PFPDRQDDFLKWWRSEEAQ : growth estimate came out at -0.241

Hey, Saccharomyces cerevisiae PS128 hsf1 delta, HSF1(1-493) fusion data for QQNGEKAQLWDFN : growth estimate came out at -0.22

Hey, Saccharomyces cerevisiae PS128 hsf1 delta, HSF1(1-493) fusion data for KELSWIIELLEKDG : growth estimate came out at -0.245

Hey, Saccharomyces cerevisiae PS128 hsf1 delta, HSF1(1-493) fusion data for DFDLDMLGDFDLDMLR : growth estimate came out at 6.97

Hey, Saccharomyces cerevisiae PS128 hsf1 delta, HSF1(1-493) fusion data for DELSWIIGLLEKDG : growth estimate came out at -0.0196

Hey, Saccharomyces cerevisiae PS128 hsf1 delta, HSF1(1-493) fusion data for MLSSHGFSKDTSALLDLFSP : growth estimate came out at -0.239

Hey, Saccharomyces cerevisiae PS128 hsf1 delta, HSF1(1-493) fusion data for AMDDVYNYLFDD : growth estimate came out at 2.28

Hey, Saccharomyces cerevisiae PS128 hsf1 delta, HSF1(1-493) fusion data for MASSHGFSVDTSALLDLFSP : growth estimate came out at 0.0397

Hey, Saccharomyces cerevisiae PS128 hsf1 delta, HSF1(1-493) fusion data for EDDDEFSLWDSPL : growth estimate came out at 0.011

Hey, Saccharomyces cerevisiae PS128 hsf1 delta, HSF1(1-493) fusion data for VADDIWEELLSEDA : growth estimate came out at -0.0522

Hey, Saccharomyces cerevisiae PS128 hsf1 delta, HSF1(1-493) fusion data for EDLYSILWRDVY : growth estimate came out at -0.193

---

- System: Saccharomyces cerevisiae PS128 hsf1 delta, HSF1(1-493) fusion
- method_summary: growth estimate (transactivation domain function in HSF1 fusion, heat-shock survival) (a.u. (slope of normalised read count over time)); higher = stronger growth at 37°C, i.e. more transactivation activity
- particulars: library: design library
Label Fulfilled when growth estimate >= 0.4; otherwise Not fulfilled.

> print(dat)
             biosequence                               measured.on  category.label
 1         EDDPEFSLWDSML  Saccharomyces cerevisiae PS128 hsf1 delta, HSF1(1-493) fusion       Fulfilled
 2        VADDIWEPLLSEDL  Saccharomyces cerevisiae PS128 hsf1 delta, HSF1(1-493) fusion   Not fulfilled
 3  PPFPGIELQELQELQALLQQ  Saccharomyces cerevisiae PS128 hsf1 delta, HSF1(1-493) fusion   Not fulfilled
 4         EDDDEFSLWRSML  Saccharomyces cerevisiae PS128 hsf1 delta, HSF1(1-493) fusion   Not fulfilled
 5  MLSSHGFSVDTSALRDLFSP  Saccharomyces cerevisiae PS128 hsf1 delta, HSF1(1-493) fusion   Not fulfilled
 6        VADPIWEELLSEDL  Saccharomyces cerevisiae PS128 hsf1 delta, HSF1(1-493) fusion       Fulfilled
 7   PFPDTADDFLKWWRSEEAQ  Saccharomyces cerevisiae PS128 hsf1 delta, HSF1(1-493) fusion       Fulfilled
 8        DLDESWDYIFERTE  Saccharomyces cerevisiae PS128 hsf1 delta, HSF1(1-493) fusion       Fulfilled
 9        DLDEKWDYIFETTE  Saccharomyces cerevisiae PS128 hsf1 delta, HSF1(1-493) fusion   Not fulfilled
10      DFDLDMLGDFDLKMLG  Saccharomyces cerevisiae PS128 hsf1 delta, HSF1(1-493) fusion   Not fulfilled

Does the sequence EFNDLPDLDFILSN have recorded growth estimate that is 0.4 or more?
Not fulfilled

Does the sequence DFDLDMRGDFDLDMLG have recorded growth estimate that is 0.4 or more?
Fulfilled

Does the sequence PFPDTPDDFLKWWRSEEAQ have recorded growth estimate that is 0.4 or more?
Fulfilled

Does the sequence EDDDEFSLWDSGL have recorded growth estimate that is 0.4 or more?
Not fulfilled

Does the sequence VADDIPEELLSEDL have recorded growth estimate that is 0.4 or more?
Not fulfilled

Does the sequence MLKSHGFSVDTSALLDLFSP have recorded growth estimate that is 0.4 or more?
Not fulfilled

Does the sequence QQNGEIAQLRDFN have recorded growth estimate that is 0.4 or more?
Not fulfilled

Does the sequence EDDDEASLWDSML have recorded growth estimate that is 0.4 or more?
Not fulfilled

Does the sequence DLDESWDYRFETTE have recorded growth estimate that is 0.4 or more?
Not fulfilled
